Catalogue of compounds with associated viability
- protocol-details: reversal of MRP1-mediated doxorubicin resistance, pilot screen, H69AR cells, doxorubicin co-treatment (AID 601)
- conditions-used: H69AR cells, CellTiter-Glo, 72 h; compound alone cytotoxicity; at 10 µM
Kindly provide the numeric value in % only, without the unit symbol.

Look over these answered cases.
NNC(=O)c1ccncc1 | 104
COC(=O)CC(C(=O)Nc1cc(C(=O)OC)cc(C(=O)OC)c1)N1CCN(C)CC1 (stereo not drawn) | 95.6
CCn1c(SCC(=O)N2CCN(c3ccc(Cl)cc3)CC2)nc2ccccc2c1=O | 78.6

I would be grateful if you could share the reported viability for Nc1nnc(SCCOc2ccccc2)s1 .
97.4

I would be grateful if you could share the reported viability for C/C(=C\C(=O)c1ccc(F)cc1)Nc1ccc(N2CCOCC2)cc1 .
90.9

I would be grateful if you could share the reported viability for CN1C(=O)c2c(sc3c2CCCC3)NC1c1ccccc1O (stereo not drawn) .
93.2

I would be grateful if you could share the reported viability for COc1ccc(OC)c(-n2nnnc2SCC(=O)NCc2ccc3c(c2)OCO3)c1 .
93.9

I would be grateful if you could share the reported viability for Cc1c(C#N)c(N)c(C(=O)c2ccccc2)n1Cc1ccccc1 .
87.4

I would be grateful if you could share the reported viability for N[C@@H](C(=O)N[C@@H]1C(=O)N2C(C(=O)O)=C(Cl)CS[C@H]12)c1ccccc1 .
114

I would be grateful if you could share the reported viability for COc1ccccc1C1N(c2ccc(F)cc2)C(=O)C2CCCN21 (stereo not drawn) .
108
